Species: Homo sapiens
Test: Cytotoxicity against lung HOP-62
Format: functional
Please use criterion met for GI50 under 20 µM and criterion not met for everything else, ties included.

sample-smiles | assigned-class
Oc1ccc(O)c(CNc2ccc(O)c(/C=C/CCc3ccccc3)c2)c1 | criterion not met
O=C(NCCc1ccc(F)cc1)c1cc(NCc2cc(O)ccc2O)ccc1O | criterion met
COc1ccc(NCc2cc(O)ccc2O)c2c1C(=O)N(CCc1ccc(F)cc1)C2 | criterion not met
O=C1c2c(O)ccc(NCc3cc(O)ccc3O)c2CN1CCc1ccccc1 | criterion not met

----------
Species: Homo sapiens
Assay: Cytotoxicity against lung HOP-62
Assay type: functional

sample-smiles | GI50 [µM]
CCCCCCn1c(=O)oc2ccc(NCc3cc(O)ccc3O)cc2c1=O | 14.8
O=C1c2c(O)ccc(NCc3cc(O)ccc3O)c2CN1CCc1ccc(F)cc1 | 19.6
O=c1oc2ccc(NCc3cc(O)ccc3O)cc2c(=O)n1CCc1ccccc1 | 21.4
O=C(NCCc1ccccc1)c1cc(NCc2cc(O)ccc2O)ccc1O | 20
O=c1oc2ccc(NCc3cc(O)ccc3O)cc2c(=O)n1CCc1ccc(F)cc1 | 17.2
CCCCCCNC(=O)c1cc(NCc2cc(O)ccc2O)ccc1O | 19
